Taken from patent EP4667464A1.

biological target: SOS1 (Homo sapiens, UniProt Q07889); construct: HIS-SOS1cat (160 nM; Cytoskeleton, US); His (N); purchased Cytoskeleton; test: SOS-catalyzed nucleotide exchange assay (HTRF, SOS1-mediated GTP loading of KRAS G12D); assay type: biochemical; conditions: GST-KRAS G12D, HIS-SOS1cat, compound 128 pM to 10 µM; read-out: SOS-catalyzed nucleotide exchange assay
Sequence (Q07889 564-1049 limits assumed): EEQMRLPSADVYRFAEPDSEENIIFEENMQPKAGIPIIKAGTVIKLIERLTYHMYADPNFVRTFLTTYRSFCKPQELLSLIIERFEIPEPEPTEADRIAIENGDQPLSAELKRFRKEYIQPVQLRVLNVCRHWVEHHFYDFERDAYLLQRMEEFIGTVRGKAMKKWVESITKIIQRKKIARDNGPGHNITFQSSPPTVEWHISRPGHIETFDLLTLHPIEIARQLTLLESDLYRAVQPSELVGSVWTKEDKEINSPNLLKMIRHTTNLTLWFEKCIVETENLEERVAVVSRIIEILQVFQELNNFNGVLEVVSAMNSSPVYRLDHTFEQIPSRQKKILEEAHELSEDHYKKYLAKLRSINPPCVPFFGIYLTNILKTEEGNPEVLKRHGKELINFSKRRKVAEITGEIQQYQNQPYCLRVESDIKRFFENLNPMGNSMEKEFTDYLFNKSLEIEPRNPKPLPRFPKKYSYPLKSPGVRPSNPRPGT
Reported IC50 values follow for various molecules

Q. Checklist item: IC50 tested on SOS1 (Homo sapiens, UniProt Q07889), entry C[C@@H](NC(=O)c1ccc(=O)n(-c2cncc(-c3cnnn3C)c2)n1)c1cccc(C(C)(F)F)c1F , value?
A. 50 to 150 nM

Next:
Q. Checklist item: IC50 tested on SOS1 (Homo sapiens, UniProt Q07889), entry C[C@@H](NC(=O)c1cc(-c2ccccc2)c(=O)n(-c2cncc(-c3cnnn3C)c2)n1)c1cccc(C(F)(F)F)c1F , value?
A. 50 to 150 nM

Q. Entry to check: C[C@@H](NC(=O)c1ccc(=O)n(-c2cc(-c3cnnn3C)cnc2F)n1)c1cccc(C(F)(F)F)c1F
A. < 50 nM

Q. Entry to check: [2H]C([2H])([2H])n1nncc1-c1cncc(-n2nc(C(=O)N[C@H](C)c3cc(N)cc(C(F)F)c3)ccc2=O)c1
A. 50 to 150 nM

Q. Entry to check: C[C@@H](NC(=O)c1ccc(=O)n(-c2cncc(-c3cnnn3C3CC3)c2)n1)c1cccc(C(F)F)c1F
A. < 50 nM

Q. Entry to check: C[C@@H](NC(=O)c1ccc(=O)n(-c2cncc(-c3cnnn3C3CCC3)c2)n1)c1cccc(C(F)(F)CO)c1F
A. < 50 nM

Q. Entry to check: C[C@@H](NC(=O)c1ccc(=O)n(-c2cncc(-c3cnnn3C)c2)n1)c1cc(N)cc(C(F)(F)F)c1
A. < 50 nM

Q. Entry to check: [2H]C([2H])([2H])c1cc(C(=O)N[C@H](C)c2cccc(C(F)F)c2F)nn(-c2cncc(-c3cnnn3C)c2)c1=O
A. 50 to 150 nM

Q. Entry to check: CCn1nncc1-c1cncc(-n2nc(C(=O)N[C@H](C)c3cccc(C(F)(F)CO)c3F)cc(C)c2=O)c1
A. < 50 nM

Q. Entry to check: C[C@@H](NC(=O)c1ccc(=O)n(-c2cncc(-c3c(Cl)nnn3C)c2)n1)c1cccc(C(F)F)c1F
A. 50 to 150 nM

Q. Entry to check: C[C@@H](NC(=O)c1ccc(=O)n(-c2cnnc(-c3ccnn3C)c2)n1)c1cccc(C(F)(F)CO)c1F
A. 50 to 150 nM
